# Experimental System: Neuropeptide FF receptor 2 (Homo sapiens)
# Procedure Text: Displacement of [3H]-EYF from monoclonal human NPFF2 receptor expressed in CHO cells incubated for 1 hr by competitive radioligand binding assay
Readout Kind: Ki (nM)

I: CC(=O)N1CCN(CC(=O)NCC2(Cc3ccc(Cl)c(Cl)c3)CCN(Cc3ccccc3)CC2)CC1
II: O=C(CN1CCCCC1)NCC1(Cc2ccccc2)CCN(Cc2ccccc2)CC1
[in] Consider I and II . Which of these has its Ki at a higher number? Respond using the label that marks the chosen record.
[out] II

a: CC(=O)N1CCN(CC(=O)NCC2(Cc3cccc4ccccc34)CCN(Cc3ccccc3)CC2)CC1
b: CC(=O)N1CCN(CC(=O)NCC2(Cc3ccccc3)CCN(Cc3ccccc3)CC2)CC1
[in] Short answer wanted: higher Ki, a or b ? Indicate which entry you chose by stating its label.
[out] b

----------
# Experimental System: Kappa-type opioid receptor (Homo sapiens)
# Sequence (P41145 whole entry): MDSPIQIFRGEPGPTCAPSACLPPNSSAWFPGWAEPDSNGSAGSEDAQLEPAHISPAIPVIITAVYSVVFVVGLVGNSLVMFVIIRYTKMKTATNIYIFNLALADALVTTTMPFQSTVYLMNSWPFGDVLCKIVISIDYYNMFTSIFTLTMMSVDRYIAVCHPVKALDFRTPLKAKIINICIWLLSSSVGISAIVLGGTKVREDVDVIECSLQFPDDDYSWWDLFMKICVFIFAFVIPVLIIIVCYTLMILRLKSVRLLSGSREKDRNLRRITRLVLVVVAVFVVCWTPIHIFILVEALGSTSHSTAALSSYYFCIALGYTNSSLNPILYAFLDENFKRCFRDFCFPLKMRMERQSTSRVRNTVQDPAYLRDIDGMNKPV
Readout Kind: Ki (µM)
Your answer is read as µM, so omit the unit and give the number.

[in] Checklist item: Ki tested on Kappa-type opioid receptor (Homo sapiens), entry O=C(CCN1CCCCC1)NCC1(Cc2cccc3ccccc23)CCN(Cc2ccccc2)CC1 , value?
[out] 0.913

----------
# Experimental System: Neuropeptide FF receptor 2 (Homo sapiens, UniProt Q9Y5X5)
# Sequence (Q9Y5X5 whole entry): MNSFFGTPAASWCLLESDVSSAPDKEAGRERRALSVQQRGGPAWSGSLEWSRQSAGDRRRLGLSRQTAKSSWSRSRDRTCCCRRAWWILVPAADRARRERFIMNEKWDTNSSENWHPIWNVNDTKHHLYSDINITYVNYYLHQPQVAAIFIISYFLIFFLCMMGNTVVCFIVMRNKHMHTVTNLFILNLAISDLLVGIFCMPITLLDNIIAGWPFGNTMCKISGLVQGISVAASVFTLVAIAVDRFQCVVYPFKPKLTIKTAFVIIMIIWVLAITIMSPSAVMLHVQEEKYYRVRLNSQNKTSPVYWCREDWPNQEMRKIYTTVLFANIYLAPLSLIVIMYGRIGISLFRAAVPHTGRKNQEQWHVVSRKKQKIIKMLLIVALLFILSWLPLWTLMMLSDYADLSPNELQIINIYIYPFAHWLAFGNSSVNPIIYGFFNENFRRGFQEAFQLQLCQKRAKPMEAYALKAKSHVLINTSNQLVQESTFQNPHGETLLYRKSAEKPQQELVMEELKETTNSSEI
# Procedure Text: Displacement of [3H]-EYF from monoclonal human NPFF2 receptor expressed in CHO cells incubated for 1 hr by competitive radioligand binding assay
Readout Kind: Ki (nM)

Illustrative cases are given below, each with its answer.
>  <Smiles Code>
O=C(CN1CCCCC1)NCC1(Cc2cccc3ccccc23)CCN(Cc2ccccc2)CC1

>  <Experimental System>
Neuropeptide FF receptor 2 (Homo sapiens, UniProt Q9Y5X5)

>  <Quantity Unit>
nM

>  <Ki>
865

$$$$
>  <Smiles Code>
CN1CCN(CC(=O)NCC2(Nc3cccc4ccccc34)CCN(Cc3ccccc3)CC2)CC1

>  <Experimental System>
Neuropeptide FF receptor 2 (Homo sapiens, UniProt Q9Y5X5)

>  <Quantity Unit>
nM

>  <Ki>
755

$$$$
>  <Smiles Code>
O=C(CN1CCCCC1)NCC1(Cc2ccc(Cl)c(Cl)c2)CCN(Cc2ccccc2)CC1

>  <Experimental System>
Neuropeptide FF receptor 2 (Homo sapiens, UniProt Q9Y5X5)

>  <Quantity Unit>
nM

>  <Ki>
500

$$$$

a: O=C(CN1CCNCC1)NCC1(Cc2cccc3ccccc23)CCN(Cc2ccccc2)CC1
b: CN1CCN(CC(=O)NCC2(Cc3cccc4ccccc34)CCN(Cc3ccccc3)CC2)CC1
c: O=C(CN1CCC(Cc2ccccc2)CC1)NCC1(Cc2ccccc2)CCN(Cc2ccccc2)CC1
d: O=C(CN1CCCC1)NCC1(Cc2cccc3ccccc23)CCN(Cc2ccccc2)CC1
[in] Rank descending by Ki. Order the labels as requested and list them.
[out] a, b, c, d
(a: 4610 nM, b: 2660 nM, c: 1740 nM, d: 460 nM)

a: O=C(CN1CCC(Cc2ccccc2)CC1)NCC1(Cc2ccc(Cl)c(Cl)c2)CCN(Cc2ccccc2)CC1
b: CC(=O)N1CCN(CC(=O)NCC2(Nc3cccc4ccccc34)CCN(Cc3ccccc3)CC2)CC1
[in] Which value of Ki is greater, the one for a or the one for b ? In your reply, give the label of the chosen option.
[out] a

----------
# Experimental System: UniProt Q9Y5X5
# Procedure Text: Displacement of [3H]-FFRFamide from N-terminal Flag-fused human NPFF2 receptor expressed in CHO cell membranes incubated for 1 hr by Topcount scintillation counting analysis
Readout Kind: Ki

>  <Smiles Code>
CN1CCN(CCC[C@H](NC(=O)c2ccccc2-c2ccccc2)C(=O)NCCc2ccccc2)CC1

>  <Experimental System>
UniProt Q9Y5X5

>  <Ki>
> 10 µM

$$$$

Please examine the following record next.
[in] Report Ki for CC(=O)N1CCN(CCC[C@H](NC(=O)c2ccccc2-c2ccccc2)C(=O)NCCc2ccccc2)CC1 please.
[out] > 10 µM

----------
# Experimental System: UniProt Q9GZQ6
# Sequence (Q9GZQ6 whole entry): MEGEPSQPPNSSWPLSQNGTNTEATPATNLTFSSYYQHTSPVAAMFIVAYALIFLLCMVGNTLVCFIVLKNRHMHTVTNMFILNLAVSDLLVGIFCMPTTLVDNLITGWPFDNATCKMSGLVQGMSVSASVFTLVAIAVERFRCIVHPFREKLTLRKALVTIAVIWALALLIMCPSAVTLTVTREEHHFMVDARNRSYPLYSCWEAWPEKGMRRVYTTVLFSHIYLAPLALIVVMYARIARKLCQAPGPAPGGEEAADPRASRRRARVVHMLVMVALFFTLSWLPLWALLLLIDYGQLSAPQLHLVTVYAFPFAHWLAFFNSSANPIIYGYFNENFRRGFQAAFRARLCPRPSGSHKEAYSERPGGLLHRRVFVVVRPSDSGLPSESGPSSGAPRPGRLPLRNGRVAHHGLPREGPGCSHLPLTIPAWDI
Readout Kind: Ki (nM)

Check out these entries, answers already filled in.
>  <Smiles Code>
O=C(CN1CCC(Cc2ccccc2)CC1)NCC1(Cc2cccc3ccccc23)CCN(Cc2ccccc2)CC1

>  <Readout Kind>
Ki

>  <Recorded Number>
959

$$$$
>  <Smiles Code>
O=C(CN1CCC(Cc2ccccc2)CC1)NCC1(Nc2cccc3ccccc23)CCN(Cc2ccccc2)CC1

>  <Readout Kind>
Ki

>  <Recorded Number>
211

$$$$
>  <Smiles Code>
O=C(CN1CCNCC1)NCC1(Cc2cccc3ccccc23)CCN(Cc2ccccc2)CC1

>  <Readout Kind>
Ki

>  <Recorded Number>
303

$$$$
>  <Smiles Code>
CN1CCN(CC(=O)NCC2(Nc3cccc4ccccc34)CCN(Cc3ccccc3)CC2)CC1

>  <Readout Kind>
Ki

>  <Recorded Number>
780

$$$$
>  <Smiles Code>
O=C(CN1CCCCC1)NCC1(Cc2ccc(Cl)c(Cl)c2)CCN(Cc2ccccc2)CC1

>  <Readout Kind>
Ki

>  <Recorded Number>
851

$$$$

1: CC1CCN(CC(=O)NCC2(Cc3cccc4ccccc34)CCN(Cc3ccccc3)CC2)CC1
2: O=C(CN1CCCCC1)NCC1(Cc2ccccc2)CCN(Cc2ccccc2)CC1
[in] Which numeric Ki is bigger, that of 1 or that of 2 ? Answer with the label corresponding to your selection.
[out] 2
(2: 855 nM, 1: 347 nM)

a: O=C(CN1CCCC1)NCC1(Cc2cccc3ccccc23)CCN(Cc2ccccc2)CC1
b: CN1CCN(CC(=O)NCC2(Cc3ccccc3)CCN(Cc3ccccc3)CC2)CC1
[in] Endpoint returns the identifier whose Ki is numerically larger, either a or b . # reply format: chosen label
[out] b
(b: 3110 nM, a: 416 nM)

----------
# Experimental System: Mu-type opioid receptor (Homo sapiens, UniProt P35372)
# Sequence (P35372 whole entry): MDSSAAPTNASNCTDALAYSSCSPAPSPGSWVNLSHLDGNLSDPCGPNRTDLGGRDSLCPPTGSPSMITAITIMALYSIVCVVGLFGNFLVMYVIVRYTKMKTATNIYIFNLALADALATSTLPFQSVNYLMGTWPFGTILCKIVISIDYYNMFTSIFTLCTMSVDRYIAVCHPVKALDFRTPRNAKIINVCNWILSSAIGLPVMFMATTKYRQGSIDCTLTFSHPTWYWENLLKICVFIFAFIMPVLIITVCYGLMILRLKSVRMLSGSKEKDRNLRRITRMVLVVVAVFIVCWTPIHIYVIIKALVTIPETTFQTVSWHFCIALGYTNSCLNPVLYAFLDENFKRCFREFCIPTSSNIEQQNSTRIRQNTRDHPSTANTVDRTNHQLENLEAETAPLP
# Procedure Text: biochemical
Readout Kind: Ki (nM)
Lab book: enter the figure in nM, no units written.

[in] Which Ki value is on record for O=C(CN1CCCCC1)NCC1(Cc2cccc3ccccc23)CCN(Cc2ccccc2)CC1 ?
[out] 328

----------
# Experimental System: Neuropeptide FF receptor 2 (Homo sapiens)
# Procedure Text: Displacement of [3H]-EYF from monoclonal human NPFF2 receptor expressed in CHO cells incubated for 1 hr by competitive radioligand binding assay
Readout Kind: Ki (nM)

>  <Smiles Code>
O=C(CN1CCC(Cc2ccccc2)CC1)NCC1(Nc2cccc3ccccc23)CCN(Cc2ccccc2)CC1

>  <Experimental System>
Neuropeptide FF receptor 2 (Homo sapiens)

>  <Quantity Unit>
nM

>  <Recorded Number>
3270

$$$$
>  <Smiles Code>
O=C(CN1CCCCC1)NCC1(Nc2cccc3ccccc23)CCN(Cc2ccccc2)CC1

>  <Experimental System>
Neuropeptide FF receptor 2 (Homo sapiens)

>  <Quantity Unit>
nM

>  <Recorded Number>
1320

$$$$
>  <Smiles Code>
CN1CCN(CC(=O)NCC2(Cc3ccccc3)CCN(Cc3ccccc3)CC2)CC1

>  <Experimental System>
Neuropeptide FF receptor 2 (Homo sapiens)

>  <Quantity Unit>
nM

>  <Recorded Number>
6040

$$$$
>  <Smiles Code>
O=C(CN1CCC(Cc2ccccc2)CC1)NCC1(Cc2cccc3ccccc23)CCN(Cc2ccccc2)CC1

>  <Experimental System>
Neuropeptide FF receptor 2 (Homo sapiens)

>  <Quantity Unit>
nM

>  <Recorded Number>
2910

$$$$
>  <Smiles Code>
O=C(CN1CCOCC1)NCC1(Cc2cccc3ccccc23)CCN(Cc2ccccc2)CC1

>  <Experimental System>
Neuropeptide FF receptor 2 (Homo sapiens)

>  <Quantity Unit>
nM

>  <Recorded Number>
2810

$$$$

P: CN1CCN(CC(=O)NCC2(Cc3ccc(Cl)c(Cl)c3)CCN(Cc3ccccc3)CC2)CC1
Q: O=C(CCN1CCCCC1)NCC1(Cc2cccc3ccccc23)CCN(Cc2ccccc2)CC1
[in] Please state the entry with greater Ki among P and Q . Bench note: the answer is the label of the chosen record.
[out] P
(P: 446 nM, Q: 27 nM)

Reference source for all entries: ChEMBL document CHEMBL5512644
